- study.system: Grb2 SH2 (UniProt P62993)
- Sequence (P62993 whole entry, looked up): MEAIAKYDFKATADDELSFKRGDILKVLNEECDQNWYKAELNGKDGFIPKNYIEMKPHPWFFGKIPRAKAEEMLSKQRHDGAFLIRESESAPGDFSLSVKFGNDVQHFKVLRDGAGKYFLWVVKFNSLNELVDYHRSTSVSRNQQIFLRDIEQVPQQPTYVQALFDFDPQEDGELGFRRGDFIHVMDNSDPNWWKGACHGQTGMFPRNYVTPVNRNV
- assay.details: SH2 binding enrichment of the phosphorylated peptide, bacterial display (enrichment ratio); higher = better substrate or ligand; peptides without Tyr show the background
So basically: SH2 binding enrichment at 1 or higher? That is True. Lower than 1? That is False.

| record.sequence | qualitative.label |
| --- | --- |
| RSHLSYDVTPE [IQGAP3_Y1098_P1097S] | False |
| FGRTFYNQAIM [MCCC2_Y196] | False |
| KLKEKYQKDIA [HMGB1_Y155_E156Q] | True |
| IMITDYLPLFR [INSR_Y87_L89P] | True |
| MALDIYRASYY [ALK_Y1278_R1275L] | True |
| LVIIKYLPEWT [PSEN1_Y240_F237I] | True |
| IQRSLYDCPAS [PDGFRA_Y762_R764C] | False |
| QKTGDYYDLYG [PTPN11_Y62_N58K] | False |
| AFPVSYSSSGA [RET_Y687] | False |
| MRALIYNSSTV [PLEKHA7_Y243_A248V] | False |
| SRDTRYLVLAV [AMH_Y195] | True |
| SVVVPYEPLEV [TP53_Y220_P223L] | False |
| NPQKSYFILLY [WAS_Y83_R86L] | False |
| EWLRRYLKNGK [HLA-C_Y195_E197K] | False |
| DYTEAYNSKIK [CLK1_Y305_P307S] | False |
| KKRSSYGNSSD [SELENOK_Y52_R50S] | False |

* * *

- study.system: FGFR1 (UniProt P11362)
- Sequence (P11362 whole entry, looked up): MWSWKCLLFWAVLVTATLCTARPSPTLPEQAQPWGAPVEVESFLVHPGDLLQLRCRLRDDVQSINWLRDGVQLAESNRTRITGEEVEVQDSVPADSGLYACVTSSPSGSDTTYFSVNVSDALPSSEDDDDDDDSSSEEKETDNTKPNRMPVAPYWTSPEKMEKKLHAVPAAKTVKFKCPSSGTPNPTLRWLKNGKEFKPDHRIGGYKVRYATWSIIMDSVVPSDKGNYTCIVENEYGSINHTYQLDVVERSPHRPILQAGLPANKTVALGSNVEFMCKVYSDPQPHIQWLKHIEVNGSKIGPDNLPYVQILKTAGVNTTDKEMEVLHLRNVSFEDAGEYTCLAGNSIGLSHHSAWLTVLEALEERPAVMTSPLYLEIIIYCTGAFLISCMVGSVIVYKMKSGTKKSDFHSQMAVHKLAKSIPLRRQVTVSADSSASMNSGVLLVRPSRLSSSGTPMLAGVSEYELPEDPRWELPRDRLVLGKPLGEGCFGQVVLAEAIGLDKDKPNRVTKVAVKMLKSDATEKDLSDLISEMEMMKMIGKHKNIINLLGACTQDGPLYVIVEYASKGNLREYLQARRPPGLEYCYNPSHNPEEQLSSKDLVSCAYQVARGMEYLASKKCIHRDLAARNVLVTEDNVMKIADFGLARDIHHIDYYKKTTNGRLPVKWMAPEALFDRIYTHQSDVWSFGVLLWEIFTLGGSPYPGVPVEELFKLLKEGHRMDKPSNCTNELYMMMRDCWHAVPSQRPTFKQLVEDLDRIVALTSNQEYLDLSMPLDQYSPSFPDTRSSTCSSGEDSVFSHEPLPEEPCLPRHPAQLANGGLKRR
- assay.details: phosphorylation enrichment, bacterial display (enrichment ratio); higher = better substrate or ligand; peptides without Tyr show the background
A collection of sequences and their measured phosphorylation enrichment

| record.sequence | phosphorylation enrichment |
| --- | --- |
| IIEDPYFGNDS [ACP1_Y132_YF] | 0.695 |
| RKNAKYLLKGE [CDH5_Y82] | 0.712 |
| LFCLHYFHRTF [SRD5A2_Y91_V89L] | 0.71 |
| ESMQSYDLDYP [UNC13B_Y243_D238E] | 0.698 |
| AEEEIYGEFEA [Src_opt_1995] | 0.694 |
| GEEIKYMLWLS [OTC_Y55] | 0.682 |
| RNGDRYFKEIV [DCX_Y64_G67E] | 0.703 |
| YPKVRYHWLVL [APTX_Y214_A212V] | 0.681 |

* * *

- System: AncSZ
- assay.details: phosphorylation enrichment, bacterial display (enrichment ratio); higher = better substrate or ligand; peptides without Tyr show the background

| record.sequence | study.system | phosphorylation enrichment |
| --- | --- | --- |
| SLLLSYFLIKW [NUP160_Y773_P768S_YF] | AncSZ | 1.56 |
| KIKGWYEKCEP [KRT26_Y119] | AncSZ | 0.996 |
| LFCLHYFHRTF [SRD5A2_Y91_V89L] | AncSZ | 1.85 |
| LIHTKYPQLLP [AHCY_Y143] | AncSZ | 0.808 |
| MKGDFYRSLAE [YWHAG_Y131_Y133S_YF] | AncSZ | 0.697 |
| AERKLYRNVML [ZNF569_Y33_Q29E] | AncSZ | 0.45 |
| AGQEGYDRLRP [RAC1_Y64_D63G] | AncSZ | 0.547 |
| HVSISYDIPPT [GAB1_Y307] | AncSZ | 1.33 |
| RHLQEYQDPLN [GFAP_Y349_L352P] | AncSZ | 0.823 |
| MEFAKYGSLRG [RET_Y809_V804M_YF] | AncSZ | 0.604 |

Source: the supplement of paper PMC10065799
